- Tested On: porcine pancreatic PLA2 (Sus scrofa, UniProt P00592)
- Construct: purchased Sigma
- Sequence (P00592 23-146): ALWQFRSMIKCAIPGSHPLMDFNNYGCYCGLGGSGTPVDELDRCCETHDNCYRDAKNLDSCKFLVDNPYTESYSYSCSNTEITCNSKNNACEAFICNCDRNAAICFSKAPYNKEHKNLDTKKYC
- Protocol Notes: MPLA2 assay: in vitro porcine pancreatic phospholipase A2, mixed micelle design, substrate 2 nM
- Assay type: biochemical
- Condition Set: dose 25 μ/ml, subs. con. 2, read-out: % Inh.
Assign class by inhibition at 25 µg/mL: not lower than 80% means yes (1); lower than 80% means no (0).

- Compound: "CCCCCCCCCCCCCCCCOCC(COP(=O)([O-])OCC[N+](C)(C)C)CC(=O)C(=O)CCCCCCCCCCCCCCCC (stereo not drawn)"
  Answer Label: "no (0)"
- Compound: "CCCCCCCCCCCCCCCCOCC(CC=NO)COP(=O)([O-])OCC[N+](C)(C)C (stereo not drawn)"
  Answer Label: "no (0)"
- Compound: "CCCCCCCCCCCCCCCCOCC(COP(=O)([O-])OCC[N+](C)(C)C)C[S+]([O-])CCCCCCCCCCCCCCCC (stereo not drawn)"
  Answer Label: "yes (1)"
- Compound: "CCCCCCCCCCCCCCCC[S+]([O-])CCCOP(=O)([O-])OCC[N+](C)(C)C (stereo not drawn)"
  Answer Label: "no (0)"
- Compound: "CCCCCCCCCCCCCCCCOCC(COP(=O)([O-])OCC[N+](C)(C)C)CC(N)CCCCCCCCCCCCCCCC (stereo not drawn)"
  Answer Label: "yes (1)"

Request: Is inhibition at 25 µg/mL for CCCCCCCCCCCCCCCCOCC(COP(=O)([O-])OCC[N+](C)(C)C)CC1CO1 (stereo not drawn) at or above 80%?
Response: yes (1)

Request: Record: CCCCCCCCCCCCCCCCOCC(COP(=O)([O-])OCC[N+](C)(C)C)OP(=O)(O)OCCCCC (single isomer, unassigned; less polar)
Response: yes (1)

Request: Record: CCCCCCCCCCCCCCCCSCCCOP(=O)([O-])OCC[N+](C)(C)C
Response: no (0)
